Source listed as ChEMBL document CHEMBL1158169.

- Assay Procedure: Toxicity in sheep erythrocytes assessed as hemolysis at 300 uM after 90 mins
- Assay type: cell-based, Ovis aries, Erythrocyte
- Run Conditions: read-out: Activity
Measured Metric: hemolysis at 1.5 h, 300 µM (%)
One number for each entry, in %.

Quick one: hemolysis at 1.5 h, 300 µM of C=CC(C)(C)c1cc(/C=C/C(=O)c2ccc(O)cc2)c(OC)cc1O ?
47.9

----------
- Test system: Staphylococcus aureus
- Assay Procedure: Antibacterial activity against methicillin-sensitive Staphylococcus aureus ATCC 13150 after 20 hrs by microdilution assay
- Assay type: functional
- Run Conditions: Staphylococcus aureus, ATCC 13150, 20 h; read-out: MIC
Provide the reported MIC of each item.

COc1cc(O)c(C(=O)/C=C/c2ccccc2)cc1C > 100 µM

Can you give me MIC for all of these, one by one?
1. O=C(/C=C/c1ccccc1)c1cccc(N2CCCCC2)c1
2. COc1cc(OC)c(C2CCN(C)CC2)c(O)c1C(=O)/C=C/c1ccc(N2CCN(C)CC2)cc1
3. COc1cc(OC)c(N2CCC(N3CCCCC3)CC2)cc1C(=O)/C=C/c1ccccc1Cl
4. O=C(/C=C/c1ccc(Cl)cc1)c1cccc(N2CCNCC2)c1

1: > 100 µM; 2: > 100 µM; 3: > 100 µM; 4: 25 µM

----------
- System: Staphylococcus aureus
- Assay Procedure: Antibacterial activity against methicillin-sensitive Staphylococcus aureus ATCC 13150 after 20 hrs by microdilution assay
- Type: functional
- Run Conditions: Staphylococcus aureus, ATCC 13150, 20 h; read-out: MIC
Measured Metric: MIC

COc1cc(OC)c(C2CCN(C)CC2)c(O)c1C(=O)/C=C/c1ccc(N(C)C)cc1 25 µM
COc1cc(OC)c(C2CCN(C)CC2)c(O)c1C(=O)/C=C/c1ccc(C(F)(F)F)cc1 > 100 µM

Hi there! I need MIC for each item below, if you can.
1. COc1cc(OC)c(C2CCN(C)CC2)cc1C(=O)/C=C/c1cccnc1
2. COc1ccc(C(=O)/C=C/c2ccc(Cl)cc2)c(OC)c1
3. COc1cc(OC)c(C2CCN(C)CC2)cc1C(=O)/C=C/c1ccc(C(F)(F)F)cc1

["> 100 µM", "> 100 µM", "50 µM"]

----------
Assignment: determine reported MIC for the given compounds.
- Test system: Staphylococcus aureus
- Assay Procedure: Antibacterial activity against methicillin-sensitive Staphylococcus aureus ATCC 13150 after 20 hrs by microdilution assay
- Assay type: functional
- Run Conditions: Staphylococcus aureus, ATCC 13150, 20 h; read-out: MIC
Answers are plain numbers, in µM.

CN1CCC(c2ccc(O)c(C(=O)/C=C/c3ccccc3Cl)c2)CC1 25

Which MIC reading was recorded for the compound COc1ccc(/C=C/C(=O)c2c(OC)cc(OC)c(C3CCN(C)CC3)c2O)cc1 ?
50

----------
- Test system: Escherichia coli
- Assay Procedure: Antibacterial activity against Escherichia coli ATCC 49696 after 20 hrs by microdilution assay
- Assay type: functional
- Run Conditions: ATCC 49696, 20 h
Could you please report measured MIC for the items listed next?

Look over these answered cases.
COc1ccc(C(=O)/C=C/c2ccccc2Cl)c(OC)c1 > 100 µM
O=C(/C=C/c1ccccc1Cl)c1cccc(N2CCNCC2)c1 > 100 µM

Then there is this compound:
Requested read-out MIC, target or system Escherichia coli, entry COc1cc(OC)c(C2CCN(C)CC2)cc1C(=O)/C=C/c1ccc(C)cc1
> 100 µM
